Reported pIC50 values are given for each entry in this list.
- assayed system: Beta Secretase enzyme (BACE) (Homo sapiens (Human))
- Sequence (P56817 46-501): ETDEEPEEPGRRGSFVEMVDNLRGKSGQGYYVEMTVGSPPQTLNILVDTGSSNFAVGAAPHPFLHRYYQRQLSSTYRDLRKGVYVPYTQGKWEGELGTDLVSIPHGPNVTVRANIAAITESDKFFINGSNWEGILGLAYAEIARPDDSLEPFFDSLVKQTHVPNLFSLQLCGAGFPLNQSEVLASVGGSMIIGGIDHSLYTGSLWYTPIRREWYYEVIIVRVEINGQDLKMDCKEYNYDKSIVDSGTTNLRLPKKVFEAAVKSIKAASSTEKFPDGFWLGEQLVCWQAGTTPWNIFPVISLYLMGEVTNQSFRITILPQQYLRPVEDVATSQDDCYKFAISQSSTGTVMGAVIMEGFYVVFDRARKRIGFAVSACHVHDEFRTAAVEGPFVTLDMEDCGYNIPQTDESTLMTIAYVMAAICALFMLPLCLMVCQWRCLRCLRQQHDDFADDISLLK
- method summary: In vitro enzymatic BACE FRET assay
- Format: biochemical
- conditions used: average; read-out: BACE 1 FRET assay IC50
pIC50: −log10 of the molar value.

# record smiles, assayed system, readout qualifier, pIC50
records = [
    ("COc1ccc(C(=O)Nc2cc(Cl)c(F)c([C@]3(C)C[C@@H](C(F)(F)F)OC(N)=N3)c2)nc1", "Beta Secretase enzyme (BACE) (Homo sapiens (Human))", "=", 7.82),
    ("C[C@@]1(c2cc(NC(=O)c3ccc(C#N)cn3)cc(F)c2Cl)C[C@@H](C(F)(F)F)OC(N)=N1", "Beta Secretase enzyme (BACE) (Homo sapiens (Human))", "=", 8.10),
    ("COc1cnc(C(=O)Nc2cc(C)c(F)c([C@]3(CF)C[C@@H](C(F)(F)F)OC(N)=N3)c2)c(C)c1", "Beta Secretase enzyme (BACE) (Homo sapiens (Human))", "=", 7.32),
    ("COc1cnc(C(=O)Nc2cc(Cl)c(F)c([C@]3(C)C[C@@H](C(F)(F)F)OC(N)=N3)c2)cn1", "Beta Secretase enzyme (BACE) (Homo sapiens (Human))", "=", 7.92),
    ("C[C@@]1(c2cc(NC(=O)c3cnc(OCc4ncco4)cn3)cc(F)c2F)C[C@@H](C(F)(F)F)OC(N)=N1", "Beta Secretase enzyme (BACE) (Homo sapiens (Human))", "=", 8.22),
    ("C[C@@]1(c2cc(NC(=O)c3cnc(C(F)F)cn3)cc(F)c2F)C[C@@H](C(F)(F)F)OC(N)=N1", "Beta Secretase enzyme (BACE) (Homo sapiens (Human))", "=", 7.12),
    ("Cc1cc(NC(=O)c2ccc(Cl)cn2)cc([C@]2(CF)C[C@@H](C(F)(F)F)OC(N)=N2)c1F", "Beta Secretase enzyme (BACE) (Homo sapiens (Human))", "=", 7.89),
    ("C[C@@]1(c2cc(NC(=O)c3ccc(Br)cn3)cc(Cl)c2F)C[C@@H](C(F)(F)F)OC(N)=N1", "Beta Secretase enzyme (BACE) (Homo sapiens (Human))", "=", 8.00),
    ("NC1=N[C@](CF)(c2cc(Oc3cc(-c4ccccc4)cc(Cl)n3)ccc2F)C[C@@H](C(F)(F)F)O1", "Beta Secretase enzyme (BACE) (Homo sapiens (Human))", "<", 4.40),
    ("COc1cnc(C(=O)Nc2cc(C)c(F)c([C@]3(CF)C[C@@H](C(F)(F)F)OC(N)=N3)c2)c(C)n1", "Beta Secretase enzyme (BACE) (Homo sapiens (Human))", "=", 7.09),
    ("C[C@@]1(c2cc(NC(=O)c3cnc(OCC(F)(F)F)cn3)cc(F)c2F)C[C@@H](C(F)(F)F)OC(N)=N1", "Beta Secretase enzyme (BACE) (Homo sapiens (Human))", "=", 7.68),
    ("Cc1cc(OCC2CC2)cnc1C(=O)Nc1cc(F)c(F)c([C@]2(C)C[C@@H](C(F)(F)F)OC(N)=N2)c1", "Beta Secretase enzyme (BACE) (Homo sapiens (Human))", "=", 7.01),
    ("C[C@@]1(c2cc(NC(=O)c3cnc(OCC(F)(F)F)cn3)cc(Cl)c2F)C[C@@H](C(F)(F)F)OC(N)=N1", "Beta Secretase enzyme (BACE) (Homo sapiens (Human))", "=", 8.10),
    ("CNC(=O)c1ccc(C#Cc2ccc(F)c([C@]3(CF)C[C@@H](C(F)(F)F)OC(N)=N3)c2)nc1", "Beta Secretase enzyme (BACE) (Homo sapiens (Human))", "=", 4.58),
]
